// values below are reported pIC50
- System: Cytochrome P450 11B2, mitochondrial (Homo sapiens)
- Sequence (P19099 whole entry): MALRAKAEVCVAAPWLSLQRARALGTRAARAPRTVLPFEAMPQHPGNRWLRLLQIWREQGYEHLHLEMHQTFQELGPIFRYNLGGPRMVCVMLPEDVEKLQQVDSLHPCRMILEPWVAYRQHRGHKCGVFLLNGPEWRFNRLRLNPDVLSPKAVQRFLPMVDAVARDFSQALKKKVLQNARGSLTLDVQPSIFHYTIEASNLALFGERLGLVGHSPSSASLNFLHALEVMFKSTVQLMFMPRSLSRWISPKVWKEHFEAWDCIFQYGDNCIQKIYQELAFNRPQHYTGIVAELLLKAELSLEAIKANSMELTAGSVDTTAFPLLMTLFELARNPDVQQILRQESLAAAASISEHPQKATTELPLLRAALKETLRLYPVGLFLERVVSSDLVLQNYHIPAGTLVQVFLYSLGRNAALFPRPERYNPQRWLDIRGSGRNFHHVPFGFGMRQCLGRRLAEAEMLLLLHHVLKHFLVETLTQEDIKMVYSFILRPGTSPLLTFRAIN
- Protocol summary: Inhibition of CYP11B2 (unknown origin)
Just the number, please; pIC50 means minus log10 of the concentration in mol/L.

# example entries with known answers
Compound structure string: Cc1nnc2n1-c1cc(F)c(-c3cccnc3)cc1CC2
System: Cytochrome P450 11B2, mitochondrial (Homo sapiens)
Readout value: 6.88
//
Compound structure string: Fc1cc(-c2cccnc2)cc2c1-n1cnnc1CC2
System: Cytochrome P450 11B2, mitochondrial (Homo sapiens)
Readout value: 6.76
//
Compound structure string: Cc1nnc2n1-c1c(F)cc(-c3cccnc3)cc1CC2
System: Cytochrome P450 11B2, mitochondrial (Homo sapiens)
Readout value: 7.20

q: Requested read-out: pIC50. Entry: `Fc1cc2c(cc1-c1cccnc1)CCc1nncn1-2`
a: 6.61
